Conditions: in acetone, 323.15 K
REPORTED_PROPERTY: solubility (mole fraction)
Lab note: record just the number, no unit beside it.

Name the recorded solubility (mole fraction) for CCOC(=O)[C@@H](N)CCc1ccccc1.Cl . 0.00505

* * *

Conditions: in 1,4-dioxane, 323.15 K
REPORTED_PROPERTY: solubility (mole fraction)
Provide a numeric answer; units are not to be included.

Entry CCOC(=O)[C@@H](N)CCc1ccccc1.Cl : reported solubility (mole fraction) = ? 0.0142

* * *

Details: in 2-butanone, 313.15 K
REPORTED_PROPERTY: solubility (mole fraction)
Number only, no unit.

Name the reported solubility (mole fraction) value associated with the compound CCOC(=O)[C@@H](N)CCc1ccccc1.Cl 0.00073

* * *

Conditions: in ethanol, 293.15 K
REPORTED_PROPERTY: solubility (mole fraction)
Give only the figure.

Would you kindly share the measured solubility (mole fraction) for CCOC(=O)[C@@H](N)CCc1ccccc1.Cl ? 0.0393

* * *

Details: in n-propanol, 313.15 K
REPORTED_PROPERTY: solubility (mole fraction)
I'd appreciate a reply containing only the number, no unit.

Quick one: solubility (mole fraction) for CCOC(=O)[C@@H](N)CCc1ccccc1.Cl ? 0.0487

* * *

Settings: in ethanol, 283.15 K
REPORTED_PROPERTY: solubility (mole fraction)
Field format: numeric only.

Which measured solubility (mole fraction) value corresponds to CCOC(=O)[C@@H](N)CCc1ccccc1.Cl ? 0.031

* * *

Conditions: in n-propanol, 283.15 K
REPORTED_PROPERTY: solubility (mole fraction)
Number, no unit, nothing else.

I would be grateful if you could share the reported solubility (mole fraction) for CCOC(=O)[C@@H](N)CCc1ccccc1.Cl . 0.019

* * *

Details: in dichloromethane, 298.15 K
REPORTED_PROPERTY: solubility (mole fraction)
Returns: the value as a bare number; no unit string appended.

If you can, please state the reported solubility (mole fraction) value of CCOC(=O)[C@@H](N)CCc1ccccc1.Cl . 0.0386

* * *

Settings: in isobutanol, 283.15 K
REPORTED_PROPERTY: solubility (mole fraction)
// response body must contain only the number

Suppose we examine the compound CCOC(=O)[C@@H](N)CCc1ccccc1.Cl ; what solubility (mole fraction) value has been reported? 0.0101

* * *

Details: in acetone, 293.15 K
REPORTED_PROPERTY: solubility (mole fraction)
Answer as a number with no unit attached.

Look at this compound and give its reported solubility (mole fraction). CCOC(=O)[C@@H](N)CCc1ccccc1.Cl 0.00117

* * *

Settings: in 1,4-dioxane, 303.15 K
REPORTED_PROPERTY: solubility (mole fraction)
Form field (numeric): enter value without unit.

Form field: reported solubility (mole fraction) of CCOC(=O)[C@@H](N)CCc1ccccc1.Cl 0.00381

* * *

Settings: in isobutanol, 313.15 K
REPORTED_PROPERTY: solubility (mole fraction)
Number only, no unit.

Consider the compound shown here: CCOC(=O)[C@@H](N)CCc1ccccc1.Cl What is its recorded solubility (mole fraction)? 0.0311

* * *

Conditions: in ethanol, 323.15 K
REPORTED_PROPERTY: solubility (mole fraction)
Write the value as a bare number.

I'd like to know its solubility (mole fraction). The compound in question is CCOC(=O)[C@@H](N)CCc1ccccc1.Cl 0.0867

* * *

Conditions: in ethanol, 303.15 K
REPORTED_PROPERTY: solubility (mole fraction)
Please give only the number in your answer, with no unit.

Return reported solubility (mole fraction); argument: CCOC(=O)[C@@H](N)CCc1ccccc1.Cl 0.0505

* * *

Conditions: in 2-butanone, 303.15 K
REPORTED_PROPERTY: solubility (mole fraction)
Lab note: record the figure alone, no unit after it.

What solubility (mole fraction) value was documented for this molecule, CCOC(=O)[C@@H](N)CCc1ccccc1.Cl ? 0.0004

* * *

Conditions: in isopropanol, 293.15 K
REPORTED_PROPERTY: solubility (mole fraction)
Number, no unit, nothing else.

Which measured solubility (mole fraction) value corresponds to CCOC(=O)[C@@H](N)CCc1ccccc1.Cl ? 0.0096

* * *

Settings: in 2-butanone, 323.15 K
REPORTED_PROPERTY: solubility (mole fraction)

Need solubility (mole fraction), item CCOC(=O)[C@@H](N)CCc1ccccc1.Cl 0.0013

* * *

Conditions: in n-butanol, 323.15 K
REPORTED_PROPERTY: solubility (mole fraction)
// keep it numeric: no unit symbol after the value

Fill in the blank: the reported solubility (mole fraction) of CCOC(=O)[C@@H](N)CCc1ccccc1.Cl is ____. 0.0277

* * *

Conditions: in sec-butanol, 283.15 K
REPORTED_PROPERTY: solubility (mole fraction)
// response body must contain only the number

Value lookup for solubility (mole fraction); key = CCOC(=O)[C@@H](N)CCc1ccccc1.Cl 0.00416

* * *

Conditions: in methyl acetate, 303.15 K
REPORTED_PROPERTY: solubility (mole fraction)
When you answer, write just the number.

Requested field: solubility (mole fraction). Item: CCOC(=O)[C@@H](N)CCc1ccccc1.Cl 0.00012

* * *

Conditions: in 2-butanone, 293.15 K
REPORTED_PROPERTY: solubility (mole fraction)

Given the entry CCOC(=O)[C@@H](N)CCc1ccccc1.Cl , report its measured solubility (mole fraction). 0.00031

* * *

Settings: in isopropanol, 303.15 K
REPORTED_PROPERTY: solubility (mole fraction)
API doc: respond with a numeric literal and nothing else, no unit.

I'd like to know its solubility (mole fraction). The compound in question is CCOC(=O)[C@@H](N)CCc1ccccc1.Cl 0.0135

* * *

Conditions: in ethanol, 313.15 K
REPORTED_PROPERTY: solubility (mole fraction)

Which solubility (mole fraction) value is on record for CCOC(=O)[C@@H](N)CCc1ccccc1.Cl ? 0.0666

* * *

Conditions: in 2-butanone, 283.15 K
REPORTED_PROPERTY: solubility (mole fraction)
In your answer, state the number alone without any accompanying words.

Query (molecule): CCOC(=O)[C@@H](N)CCc1ccccc1.Cl ; field requested: solubility (mole fraction) 0.00022

* * *

Settings: in 1,4-dioxane, 288.15 K
REPORTED_PROPERTY: solubility (mole fraction)
Lab note: jot down the number only; don't add units.

Which solubility (mole fraction) value belongs to CCOC(=O)[C@@H](N)CCc1ccccc1.Cl ? 0.00221

* * *

Conditions: in sec-butanol, 323.15 K
REPORTED_PROPERTY: solubility (mole fraction)
# output: bare number, no unit

Data request, read-out solubility (mole fraction), for CCOC(=O)[C@@H](N)CCc1ccccc1.Cl 0.0257

* * *

Conditions: in n-pentanol, 323.15 K
REPORTED_PROPERTY: solubility (mole fraction)
API note: the answer field is a bare number with no unit suffix.

# input compound: CCOC(=O)[C@@H](N)CCc1ccccc1.Cl ; wanted: its solubility (mole fraction) 0.0595

Sourced from BigSolDB 2.1
